System: SNB-19 CNS
Assay: NCI tumour cell line growth inhibition, 48 h; in the data active = GI50 below about 0.43 µM; inactive = the rest
Give your call using only these classes: yes (1) (active), no (0) (inactive)

Worked cases, answers included:
Compound	Class
Cc1cccc2c1O/C(=C\c1ncc([N+](=O)[O-])n1C)C2=O	no (0)
NC(=O)c1cc(Cl)ccc1NC(=O)c1ccccc1-c1ccccc1	no (0)
C[C@@H](Oc1cc(NS(=O)(=O)N2CCC2)nc(SCc2cccc(F)c2F)n1)[C@@H](O)CO	no (0)
CN(C)c1ccc2cc(-c3cc4c(oc3=O)-c3ccccc3OC4O)c(=O)oc2c1 (stereo not given)	no (0)
COc1cc([C@@H]2c3cc4c(cc3[C@H](OC(C)=O)[C@H]3COC(=O)[C@H]23)OCO4)cc(OC)c1OC	yes (1)
O=c1ccccc(-c2ccc(-c3ccco3)cc2)c1O	no (0)
CCC1CCCCN1C(=S)N/N=C(\C)c1ccccn1 (stereo not given)	yes (1)
COc1ccccc1N1CCN(C(=O)c2ccc(NS(=O)(=O)c3cccc4cccnc34)cc2)CC1	no (0)
N=C1C(c2nc3ccccc3s2)=C(O)CN1c1ccc(Cl)cc1Cl	no (0)

Moving on to another compound below.
Inquiry: Tell me the recorded outcome of this test for N#C/C(=C/C=C/c1ccccc1)S(=O)c1ccccc1 (stereo not given) .
Reply text: no (0)

----------
Test system: SN12C renal
Experiment: NCI tumour cell line growth inhibition, 48 h; in the data active means GI50 below about 0.43 µM; inactive means the rest
Give your call using only these classes: class 1 (active), class 0 (inactive)

Worked cases, answers included:
Compound	Class
O=C1c2cccc3cc([N+](=O)[O-])cc(c23)C(=O)N1CCN1CCCC1	class 1
C#Cc1cccc(Nc2ncnc3ccc(-c4cnc(Cl)c(NS(C)(=O)=O)c4)cc23)c1	class 1

Inquiry: Tell me the recorded outcome of this test for N/C(=N\c1nc2ccccc2s1)NC(=O)Nc1ccccc1Cl .
Reply text: class 0

Inquiry: Tell me the recorded outcome of this test for C/C=C1\C(=O)O[C@@H]2C1C[C@@H]1O[C@H]2[C@H](C)CCC/C(C)=C/CC[C@@]1(C)O (stereo partly drawn) .
Reply text: class 0

Inquiry: Tell me the recorded outcome of this test for C=Cc1cc2c(cc1O)CC[C@@H]1[C@@H]2CC[C@]2(C)[C@@H](O)CC[C@@H]12 .
Reply text: class 0

Inquiry: Tell me the recorded outcome of this test for COC(=O)c1cc2c3c(cc(O)c2[nH]1)N(C(=O)C1Cc2cc(OC)c(OC)c(OC)c2N1)CC3CCl (stereo not drawn) .
Reply text: class 1

----------
Listing of entries alongside the reported TGI.
Tested on: HOP-92 NSCLC
Assay: NCI tumour cell line growth inhibition, 48 h

See these solved cases before continuing.
Molecule	Measurement type	Result
O=C1CCC2=C3C4CCCCC4C(=O)C4CCCC(OC2C1)C34 (stereo not drawn)	TGI	8.95 µM
CC1=C(C(=O)NCC(C)O)CC(C(=O)NCC(C)O)=C(C)N1 (stereo not drawn)	TGI	> 100 µM
C[C@@H](NC1CCC[C@@H]1O)c1ccccc1 (stereo partly drawn)	TGI	> 100 µM
CC(=O)N1N=C(N)CC1=O	TGI	> 100 µM
COc1ccc(-c2nc(N)c3ncn(C4OC(CO)C(O)C4O)c3n2)cc1 (stereo not drawn)	TGI	> 100 µM
O=C1CC(c2ccc[nH]2)=NN1c1ccccc1	TGI	> 100 µM

Value of measured TGI for the entry CCC(O)(c1ccc(OC)cc1)C(c1ccc(OCc2ccccc2)cc1)c1ccc(OCc2ccccc2)cc1 (stereo not drawn) : > 100 µM

Value of measured TGI for the entry CN(C)c1ccc2cc(-c3cc4c(oc3=O)-c3ccccc3OC4O)c(=O)oc2c1 (stereo not drawn) : 17.7 µM

Value of measured TGI for the entry CSc1nc(O)c(/C=C2\C=Nc3ccccc32)[nH]1 : > 100 µM

Value of measured TGI for the entry CC(C)(C)OC(=O)NC(Cc1ccc(OCc2ccccc2)cn1)C(=O)N1CCSCC1 (stereo not drawn) : > 100 µM

Value of measured TGI for the entry COc1ccc(C(=O)C(Br)C(Br)C(=O)O)cc1 (stereo not drawn) : > 100 µM

Value of measured TGI for the entry CC(C)NC(=O)OCc1c(COC(=O)NC(C)C)c(-c2ccc[n+](COC(=O)C3CC3)c2)n2c1CCC2 : > 100 µM
